- method: DUSP6 inhibitors restoring Erk phosphorylation by chemical complementation, primary imaging in DUSP6-transfected HeLa (AID 609)
- condition-details: HeLa MKP-3 transfected, phospho-Erk imaging KS statistic; measured here: cell density z-score; at 10 µM; cells stimulated with TPA for 15 min
measured-endpoint: z-score

compound	measured-endpoint	reading
CN1CCc2c(sc3ncn4nc(-c5ccccc5O)nc4c23)C1	z-score	0.947
COc1ccc(C2CC(C(F)(F)F)n3ncc(C(=O)NCC4CCCO4)c3N2)cc1OC (stereo unspecified)	z-score	-0.241
CCCCNc1cc(C(=O)O)cc(S(N)(=O)=O)c1Oc1ccccc1	z-score	0.424
O=C(O)c1cc(=O)c2c(OCC(O)COc3cccc4oc(C(=O)O)cc(=O)c34)cccc2o1	z-score	-1.42
Cc1nc2c(=O)n(C)c(=O)[nH]c2n1Cc1ccccc1	z-score	0.739
C[C@H](CS)C(=O)N1CCC[C@H]1C(=O)O	z-score	0.625
Cc1cc(=O)oc(C)c1C(=O)NCCNC(=O)c1c(C)cc(=O)oc1C	z-score	0.642
CCN1CCCC1Cn1cnc2c([nH]c3ccc(C)cc32)c1=O (stereo unspecified)	z-score	-0.0977
CCOC(=O)CSc1nc(N)c2c3c(sc2n1)CCCC3	z-score	-0.0379
Cc1cccn2c(=O)c3cc(C#N)c(=N)n(Cc4ccncc4)c3nc12	z-score	0.463
COc1ccc(-c2cn3ccsc3n2)cc1	z-score	-1.31

----------
- method: inhibitors of larval lipid processing in zebrafish, primary screen, whole organism, PED6 fluorescence, gall bladder and intestine (AID 686);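 also: larvae 5 to 7 days old with five fish per well; signal comes from phospholipase A2 cleavage of quenched PED6 carried via bile; overnight exposure to compound and PED6 before scoring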
- condition-details: Zebrafish larvae PED6 lipid processing, fluorescence scoring; screened at 20 µM (by protocol)
Calls of active or inactive are those of the source.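 How the source made its calls: active means a full or partial loss of lipid-probe fluorescence in the fish gall bladder, intestine or both, judged by eye; inactive means no fluorescence loss, or compound toxic to the fish.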
measured-endpoint: outcome

compound	measured-endpoint	reading
COC(=O)C(NC(C)=O)(Nc1nc2ccc(S(C)(=O)=O)cc2s1)C(F)(F)F (stereo unspecified)	outcome	inactive
Cn1c(=O)n(CCC(=O)O)c2ccccc21	outcome	inactive
Cc1cc(O)c(C(C)C)cc1N=C1CSC(=O)N1	outcome	inactive
CC(C)OC(=O)CC1=NC(=O)CS1	outcome	inactive
O/N=C1\CCc2cc(Cl)ccc21	outcome	inactive
Cc1nnc2n(Cc3ccccc3)c(=O)c3c4c(sc3n12)CN(Cc1ccccc1)CC4	outcome	inactive

----------
Item-by-item account of z-score
- method: DUSP6 inhibitors restoring Erk phosphorylation by chemical complementation, primary imaging in DUSP6-transfected HeLa (AID 609)
- condition-details: HeLa MKP-3 transfected, phospho-Erk imaging KS statistic; measured here: cell density z-score; at 10 µM; cells stimulated with TPA for 15 min

molecule	z-score
Cn1c(NCc2ccco2)nc2c1c(=O)n(Cc1ccc(Cl)c(Cl)c1)c(=O)n2C	-0.044
N#Cc1c(NC(=O)CCC(=O)O)sc2c1CCCC2	-1.16
O=C1c2ccccc2C(=O)C1c1ccc2ccccc2n1	-0.111
Oc1ccc2ccccc2c1/C=N/n1cnnc1	0.969
CCC(=O)Oc1ccc(/C(CC)=C(\CC)c2ccc(OC(=O)CC)cc2)cc1	-0.723
C[C@]12CC[C@@H]3c4ccc(OS(=O)(=O)O)cc4CC[C@H]3[C@@H]1CCC2=O	1.77
Cc1ccc(C2/C(=C(/O)c3ccc(OC(C)C)cc3)C(=O)C(=O)N2CCN2CCOCC2)cc1 (stereo unspecified)	0.417
Cc1ccc(Cl)c(Nc2ccccc2C(=O)O)c1Cl	-0.43
CCO/C([O-])=N/c1c[n+](N2CCOCC2)no1	-0.87
Cn1ncc(N=Cc2ccccc2O)c1C(=O)Nc1ccccc1	-0.0255
CCN(CC)CCN1C(=O)C(=O)/C(=C(/O)c2ccc(C)cc2)C1c1cccnc1 (stereo unspecified)	0.619

----------
- method: DUSP6 inhibitors restoring Erk phosphorylation by chemical complementation, primary imaging in DUSP6-transfected HeLa (AID 609)
- condition-details: HeLa MKP-3 transfected, phospho-Erk imaging KS statistic; measured here: nuclear pErk red intensity z-score; at 10 µM; stronger effect = higher value; cells stimulated with TPA for 15 min
// map z-score onto a label; ranges group 1 = under -0.7, group 2 = from -0.7 up to 0.1, group 3 = 0.1 and over

compound	label
N#Cc1nc(-c2cccs2)oc1NCCN1CCOCC1	group 2
CC(CN1CCN(C)CC1)OC(=O)c1ccc(Cl)cc1Cl (stereo unspecified)	group 2
COc1cccc(-c2nc(NCC3CCCO3)c3ccccc3n2)c1O (stereo unspecified)	group 3
CCOC(=O)c1[nH]c2cc3c(cc2c1NC(=O)CN1CCc2ccccc2C1)OCO3	group 2
CN1C2C=C3C(C#N)=C(N)C(C#N)(C#N)[C@@H](c4cccs4)C3C1CC2 (stereo partly specified)	group 3
CC1(C)CC(=O)C2=C(C1)N(CC1CCCO1)C(=O)C2(O)C(F)(F)F (stereo unspecified)	group 2
O=C(c1cccc2ccccc12)N1CCC(N2CCN(c3ccccc3)CC2)CC1	group 2
Clc1ccc(-n2ncc3c(NCCCn4ccnc4)ncnc32)cc1	group 3
C[C@@H]1C[C@H]2[C@@H]3C[C@H](F)C4=CC(=O)C=C[C@]4(C)[C@@]3(F)[C@@H](O)C[C@]2(C)[C@@]1(O)C(=O)COC(=O)C(C)(C)C	group 1
C/C(=N\O)c1ccc2[nH]ccc2c1	group 1
CC(=O)Nn1cnc2c(c1=O)C1(CCCC1)Cc1ccccc1-2	group 3
COc1ccc(/C=C/C(=O)Nc2ccccc2C(=O)O)cc1OC	group 2
CO[C@H]1C[C@@H]2CC[C@@H](C)[C@@](O)(O2)C(=O)C(=O)N2CCCC[C@H]2C(=O)O[C@H]([C@H](C)C[C@@H]2CC[C@@H](O)[C@H](OC)C2)CC(=O)[C@H](C)C=C(C)[C@@H](O)[C@@H](OC)C(=O)[C@H](C)C[C@H](C)C=CC=CC=C1C	group 3
CC1CN(C2CCN(C(=O)c3ccccc3)CC2)CC(C)O1 (stereo unspecified)	group 1
COCc1[nH]nc2c1C(c1cccc(OC)c1)C(C#N)=C(N)O2 (stereo unspecified)	group 1
Cc1cc(C)c(C#N)c(SCC(=O)NC2CC2)n1	group 2
Cn1c(NCCN2CCCCC2)cc(=O)n(C)c1=O	group 2
CCOC(=O)c1ccc(NC(=O)CCC(CC)C(=O)O)cc1 (stereo unspecified)	group 2
CCOC(=O)c1[nH]c2ccc(OC)cc2c1C	group 3
CC(C)Cn1nc(NC(=O)C(C)(C)C)c2cc3ccccc3nc21	group 3

----------
- method: inhibitors of E-selectin induction by TNFa, primary screen, imaging, HUVEC, immunofluorescence, MLSMR starter and 10KST1 sets (AID 487);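 also: 100% = median nuclei count of all wells on the same plate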
- condition-details: HUVEC TNFalpha-induced E-selectin immunofluorescence imaging, at 2 µM; measured here: cell number, toxicity
As shown below, each of these compounds has a reported nuclei count value.

compound	nuclei count / %
CCCCNC1=C(Br)C(=O)CC(C)(C)C1	101
CC(C)OC(=O)C(CC(=O)O)NCc1ccccc1 (configuration not stated)	118
CC(NCCc1ccc(O)cc1)C(O)c1ccc(O)cc1 (configuration not stated)	123
CCn1nc(C(=O)O)c(=O)c2cc3c(cc21)OCO3	125
CCNC(=O)N(C(=O)NCC)n1c(C)nnc1C	130
Cc1cc(C)c(-n2c(O)c(C=NCCN3CCOCC3)c(=O)[nH]c2=O)c(C)c1	152
c1coc(-c2nc3nc4ccccc4nc3n2-c2ccc3c(c2)OCCO3)c1	152
CCCCOC(=O)CSc1nc(N)c(C#N)c(-c2ccc(OC)cc2)c1C#N	99.4
Nc1nonc1-c1noc(N2CCOCC2)n1	106
CC(C)C(=O)N1CCN(c2nc(-c3ccccc3)c3c(c2C#N)CCCC3)CC1	122
CC(=O)O[C@]1(C(C)=O)CC[C@H]2[C@@H]3C[C@H](C)C4=CC(=O)CC[C@]4(C)[C@H]3CC[C@@]21C	119
COc1ccc(C(C)=O)cc1CSCCC(=O)O	175

----------
- target-or-test-system: Alpha-2C adrenergic receptor (Homo sapiens) (UniProt P18825)
- Sequence (P18825 whole entry, looked up): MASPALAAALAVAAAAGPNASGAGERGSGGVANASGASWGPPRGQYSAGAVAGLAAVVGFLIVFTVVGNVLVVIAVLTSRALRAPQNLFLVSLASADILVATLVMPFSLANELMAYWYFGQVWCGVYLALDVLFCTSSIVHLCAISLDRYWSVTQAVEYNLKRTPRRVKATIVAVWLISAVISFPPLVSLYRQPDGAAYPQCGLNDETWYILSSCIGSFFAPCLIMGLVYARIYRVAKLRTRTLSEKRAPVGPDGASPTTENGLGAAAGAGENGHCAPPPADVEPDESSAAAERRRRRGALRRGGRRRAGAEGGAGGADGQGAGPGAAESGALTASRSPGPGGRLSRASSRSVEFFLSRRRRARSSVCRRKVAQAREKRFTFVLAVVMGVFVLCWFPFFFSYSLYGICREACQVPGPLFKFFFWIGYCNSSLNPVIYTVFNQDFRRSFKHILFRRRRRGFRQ
- method: modulators of alpha2C/GIRK thallium flux, primary screen, cell-based, HEK293 alpha2C/GIRK1/2 (AID 624);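 also: slope of fluorescence ratio to pre-addition baseline per second over 15 to 24 s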
- condition-details: thallium flux BTC fluorescence, at 10 µM, actives lie on both sides
Criterion: slope meeting or surpassing 0.005. Met: y. Not met: n.

molecule	label
COC(=O)c1ccccc1NC(=O)CSc1nnc(-c2ccncc2)o1	y
CC1(C)S[C@@H]2[C@H](NC(=O)C(C(=O)O)c3ccccc3)C(=O)N2[C@H]1C(=O)O (stereo partly drawn)	n
Cc1nnc2n(Cc3ccccc3)c(=O)c3c4c(sc3n12)COC(C(C)C)C4 (stereo not drawn)	y
COc1ccc(Cn2c(N)c(C#N)c3nc4ccccc4nc32)cc1OC	n
COC(=O)c1n[nH]c2ccccc12	y
CCOC(=O)CSc1nc(N(C)C)nc(N(C)C#N)n1	y
C=CCn1cnc2c(c1=O)c1nc3ccccc3nc1n2-c1ccc(C)cc1	n
CCCCCCCCNC(C)C(O)c1ccc(SC(C)C)cc1 (stereo not drawn)	n
Cc1ccc(C)c(OCCCC(C)(C)C(=O)O)c1	y
CCOC(=O)COc1nc(N(C)C)nc(N(C)C)n1	y
Fc1ccccc1-c1nc(N2CCCCC2)c2ccccc2n1	y
CC1(C)SC2[C@H](NC(=O)C(NC(=O)N3CCNC3=O)c3ccccc3)C(=O)N2C1C(=O)O (stereo partly drawn)	y
COc1ccc(C2CC(C(F)(F)F)n3ncc(C(=O)NCC4CCCO4)c3N2)cc1OC (stereo not drawn)	n
O=c1c2ccccc2[nH]c(=S)n1CCN1CCC(=C(c2ccc(F)cc2)c2ccc(F)cc2)CC1	y
O=C(O)c1ccc(OCCn2ccnc2)cc1	y
CC(=O)O[C@]1(C(C)=O)CC[C@H]2[C@@H]3C[C@H](C)C4=CC(=O)CC[C@]4(C)[C@H]3CC[C@@]21C	n
Cc1c(Cl)cccc1Nc1ccccc1C(=O)O	y
COc1ccc(NC(=O)Nc2cccc(C(=O)N3CCOCC3)c2)cc1OC	y
COC(=O)CSc1nc(C)c(C(C)=O)cc1C#N	y
CCC1SC(N)=NC1=O (stereo not drawn)	y
